# Tested on: HLA-DR1 (α1*01:01;β1*01:01)
# Test protocol: ProImmune REVEAL MHC class II binding assay of long peptides
# Design: species or system human
# Run conditions: percentage of the signal of the positive control peptide; positive binding score >=15%
# Text: The highly frequent HLA class II alleles HLA-DR1 (α1*01:01;β1*01:01), HLA-DR15 (α1*01:01;β1*15:01), HLA-DR3 (α1*01:01;β1*03:01), HLA-DR4 (α1*01:01;β1*04:01), HLA-DR11 (α1*01:01;β1*11:01), HLA-DR13 (α1*01:01;β1*13:01), and HLA-DR7 (α1*01:01;β1*07:01) were selected. […] The score of the test peptide is reported quantitatively as a percentage of the signal generated by the positive control peptide, and the peptide is indicated as having a putative pass or fail result. […]
binding score, HLA-DR1 (α1*01:01;β1*01:01): recorded values
State the answer as a number, implicitly in %.

NP113: unconjugated HBV long peptide, polymerase region 96-130 of virtual HBV proteome (VGPLTVNEKRRLKLIMPARFYPNVTKYLPLDKGIK; HBV CONSENSUS SEQUENCE) :: 54.44
NP151: unconjugated HBV long peptide, polymerase region 134-168 (PEHVVNHYFQTRHYLHTLWKAGILYKRETTRSASF; HBV CONSENSUS SEQUENCE) :: 14.59
NP856(K): unconjugated HBV long peptide, core 839-873 + KKK (LTFGRETVLEYLVSFGVWIRTPPAYRPPNAPILSTKKK; HBV CONSENSUS SEQUENCE) :: 2.33
NP277(K): unconjugated HBV long peptide, polymerase 260-293 + KKK (RVSWPKFAVPNLQSLTNLLSSNLSWLSLDVSAAFYHKKK; HBV CONSENSUS SEQUENCE) :: 0.49
NP753(K): unconjugated HBV long peptide, core KK + 738-770 (S to T at 743) + KKK (KKKEFGATVELLSFLPSDFFPSVRDLLDTASALYRKKK; HBV CONSENSUS SEQUENCE) :: 0.11

Let us move to another entry and its binding score, HLA-DR1 (α1*01:01;β1*01:01).
Specify binding score, HLA-DR1 (α1*01:01;β1*01:01) for NP376: unconjugated HBV long peptide, polymerase 359-398 (C to S substitution at 393) (KLHLYSHPIILGFRKIPMGVGLSPFLLAQFTSAISSVVRR; HBV CONSENSUS SEQUENCE) and stop. 27.71
